# Assay overview: Volume of distribution in Sprague-Dawley rat at 2 mg/kg, iv measured upto 24 hrs by LC-MS/MS analysis
# Assay type: ADME, organism-based
# Measurement conditions: in vivo
Test readout: Vd (L/kg)
Answers are plain numbers, in L/kg.

Challenge: Report Vd for "COc1ccc2c(ccn2C[C@H](O)CN2CCc3ccccc3C2)c1" please.
Response given: 9.3

----------
# pIC50 measurements, system: Protein arginine N-methyltransferase 5 (Homo sapiens, UniProt O14744)
# Sequence (O14744 whole entry): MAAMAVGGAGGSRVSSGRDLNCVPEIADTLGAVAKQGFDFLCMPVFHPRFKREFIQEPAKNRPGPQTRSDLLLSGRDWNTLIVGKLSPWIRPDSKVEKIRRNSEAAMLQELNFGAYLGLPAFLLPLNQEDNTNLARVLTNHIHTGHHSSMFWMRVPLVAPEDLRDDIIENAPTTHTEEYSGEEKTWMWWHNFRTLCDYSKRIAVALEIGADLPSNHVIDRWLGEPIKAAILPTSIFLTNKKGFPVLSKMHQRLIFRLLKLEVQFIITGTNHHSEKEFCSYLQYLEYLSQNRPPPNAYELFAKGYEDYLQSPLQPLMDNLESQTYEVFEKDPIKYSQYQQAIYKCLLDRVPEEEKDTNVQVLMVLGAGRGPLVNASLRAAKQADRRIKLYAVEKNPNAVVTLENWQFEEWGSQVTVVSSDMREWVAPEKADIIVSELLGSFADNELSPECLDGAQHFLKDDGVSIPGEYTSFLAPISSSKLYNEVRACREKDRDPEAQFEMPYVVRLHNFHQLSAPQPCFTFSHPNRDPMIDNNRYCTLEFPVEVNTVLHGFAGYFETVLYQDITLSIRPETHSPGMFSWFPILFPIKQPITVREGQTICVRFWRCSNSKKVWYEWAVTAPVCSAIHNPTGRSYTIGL
Answers are plain numbers, as −log10 of the molar value.

>>> experimental_value("COc1ccc2c(ccn2C[C@H](O)CN2CCc3ccc(Br)cc3C2)c1")
4.48
>>> experimental_value("CC(=O)c1cn(C[C@H](O)CN2CCc3ccccc3C2)c2ccccc12")
5.60
>>> experimental_value("O[C@H](CN1CCc2ccccc2C1)Cn1ccc2ccc(Cl)cc21")
6.28

Please state, for each entry, its recorded pIC50.
1. N#CCc1cn(C[C@H](O)CN2CCc3ccccc3C2)c2ccccc12
2. N#Cc1cn(C[C@H](O)CN2CCc3ccccc3C2)c2ccccc12
3. O[C@H](CN1CCc2cc(Br)ccc2C1)Cn1ccc2ccc(Br)cc21
4. O[C@H](CN1CCc2ccccc2C1)Cn1ccc2cc(F)ccc21

Response given:
1: 5.39; 2: 5.68; 3: 5.61; 4: 4.73

Please state, for each entry, its recorded pIC50.
1. N#Cc1cccc2c1ccn2C[C@H](O)CN1CCc2ccccc2C1
2. COc1ccc2c(ccn2C[C@H](O)CN2CCc3ccccc3C2C)c1 (stereo partly drawn)

Response given:
1. 5.30
2. 4.83

Please state, for each entry, its recorded pIC50.
1. Cc1ccc2c(ccn2C[C@H](O)CN2CCc3ccccc3C2)c1
2. COc1ccc2c(ccn2C[C@H](O)CN2CCc3ccccc3C2)c1
3. N#Cc1ccc2ccn(C[C@H](O)CN3CCc4ccccc4C3)c2c1
4. COc1ccc2c(ccn2C[C@H](O)CN2CCc3cc(Br)ccc3C2)c1
5. COc1cc2c(cc1OC)CN(C[C@@H](O)Cn1ccc3ccc(Br)cc31)CC2
6. O[C@H](CN1CCc2ccccc2C1)Cn1ccc2cc(Cl)ccc21
7. Cc1ccc2ccn(C[C@H](O)CN3CCc4ccccc4C3)c2c1
8. O=C(NC[C@H](O)CN1CCc2ccccc2C1)c1ccc2c(c1)CCN(C(=O)c1ccc(Br)cc1)C2

Response given:
1. 6.21
2. 6.51
3. 5.92
4. 4.29
5. 4.21
6. 5.09
7. 5.19
8. 8.10

Challenge: Report pIC50 for "COc1ccc2c(ccn2C[C@H](O)CN2CCc3cc(OC)c(OC)cc3C2)c1" please.
Response given: 4.39
